System: Plasmodium falciparum
ASSAY_INFO: Primary screen in NF54 nanoGlo assay, in single point, at 2uM, 72h; a lower Z score goes with more inhibition
Type: functional, Erythrocyte
EXPERIMENTAL_CONTEXT: timepoint 72 hour
The whole screen tested about 150,000 compounds, of which about 540 (0.36%) showed an effect of 50% or more. The sample holds strong results, similar compounds and a random draw of the others, so the mix is not that of the screen.
Z score values by entry
Give the figure only, with no unit attached.

These solved cases illustrate the format of a correct answer.
1) CN1CCC2CCN(C(=O)Nc3nccs3)C2C1 (stereo not drawn)    0.77
2) COCCn1ccc(C(=O)N[C@H]2CCc3nc(C(C)C)nn3C2)n1    -11.17
3) COc1cccc(CNC(=O)N2CC[C@@H]3CCN(C)C[C@@H]32)n1    0.42

Qu. Requested field: Z score. Item: CC(C)c1ncc(C(=O)N[C@H]2CN3CCC2CC3)cn1
Ans. -0.19

Qu. Record request: Z score value, item Cc1cc(C)n2ncc(CN3C[C@@H]4CC[C@H](C3)C(=O)N4)c2n1
Ans. 1.38

Where do the numbers come from? From ChEMBL document CHEMBL4888484.
